assay-notes: 1H NMR-pH titration, protonation constants
Type: physicochemical
details: H2O:D2O = 9:1 solvent mixture, converted from optimized microscopic basicity parameters (site-binding model); read-out: macroscopic pKa, 1st of the set
assay-metric: pKa

pKa in this record for O=C(O)CCSC[C@H]1O[C@@H]2O[C@H]3[C@H](O)[C@@H](O)[C@@H](O[C@H]4[C@H](O)[C@@H](O)[C@@H](O[C@H]5[C@H](O)[C@@H](O)[C@@H](O[C@H]6[C@H](O)[C@@H](O)[C@@H](O[C@H]7[C@H](O)[C@@H](O)[C@@H](O[C@H]1[C@H](O)[C@H]2O)O[C@@H]7CSCCC(=O)O)O[C@@H]6CSCCC(=O)O)O[C@@H]5CSCCC(=O)O)O[C@@H]4CSCCC(=O)O)O[C@@H]3CSCCC(=O)O : 3.84

----------
assay-notes: 1H NMR-pH titration, protonation constants
Format: physicochemical
details: H2O:D2O = 9:1 solvent mixture, converted from optimized microscopic basicity parameters (site-binding model); read-out: macroscopic pKa, 4th of the set
assay-metric: pKa
Just the number, please, no unit after it.

// recorded pKa for O=C(O)CCSC[C@H]1O[C@@H]2O[C@H]3[C@H](O)[C@@H](O)[C@@H](O[C@H]4[C@H](O)[C@@H](O)[C@@H](O[C@H]5[C@H](O)[C@@H](O)[C@@H](O[C@H]6[C@H](O)[C@@H](O)[C@@H](O[C@H]7[C@H](O)[C@@H](O)[C@@H](O[C@H]1[C@H](O)[C@H]2O)O[C@@H]7CSCCC(=O)O)O[C@@H]6CSCCC(=O)O)O[C@@H]5CSCCC(=O)O)O[C@@H]4CSCCC(=O)O)O[C@@H]3CSCCC(=O)O [Suα-CD, sualphadex] : 5.31

----------
assay-notes: 1H NMR-pH titration, protonation constants
Assay type: physicochemical
details: H2O:D2O = 9:1 solvent mixture, converted from optimized microscopic basicity parameters (site-binding model); read-out: macroscopic pKa, 6th of the set
assay-metric: pKa
# answer = number (no unit)

The recorded pKa for entry O=C(O)CCSC[C@H]1O[C@@H]2O[C@H]3[C@H](O)[C@@H](O)[C@@H](O[C@H]4[C@H](O)[C@@H](O)[C@@H](O[C@H]5[C@H](O)[C@@H](O)[C@@H](O[C@H]6[C@H](O)[C@@H](O)[C@@H](O[C@H]7[C@H](O)[C@@H](O)[C@@H](O[C@H]1[C@H](O)[C@H]2O)O[C@@H]7CSCCC(=O)O)O[C@@H]6CSCCC(=O)O)O[C@@H]5CSCCC(=O)O)O[C@@H]4CSCCC(=O)O)O[C@@H]3CSCCC(=O)O equals 6.28
